- TARGET_ENTITY: T1, FC5DIE3IR recombinant protein
- T1 construct: Made in CHO-3E7 cells; also called FC5DIE31R; FC5DIE3R
- PROTOCOL_TEXT: phage ELISA, phage supernatant on coated FC5DIE3IR or PBS wells, anti-M13-HRP, TMB

BINDER	binding result
VHH DI-B (VHH, From the naive LAC-M library; soluble tagged monomer in protein ELISA and patch clamp; also called clone B; not shown: 6xHis and c-Myc tags on the soluble monomer) VHH: QVKLEESGGGLVPPGESLRLTCAATGQTASVYEMAWFRRAPEKEQVYVASINWRDGDTQYHNSVKGRFIISRDNAKNTVFLQMNSLTPEDTAIYYCAARKELAGYDYWGQGTQVTVSS	binds
VHH DI-H (VHH, From the naive LAC-M library; soluble tagged monomer in protein ELISA and patch clamp; also called clone H; not shown: 6xHis and c-Myc tags on the soluble monomer) VHH: QVKLEESGGGLVQAGESLRLSCVNSGSTFSIYAMGWYRQAPGKQRELVAAISSVGRTNYADSVKGRFTISRAGAKNTVYLHMNNLKPEDTAVYSCITYYQNAMYFGQGTQVTVSS	binds
